endpoint_name: melting point

# annotated cases, reported melting point shown
[
  {
    "molecule": "O=C1NCCn2c(C(=O)NCc3ccccc3)nc3cccc1c32",
    "endpoint_name": "melting point",
    "readout_value": "247 to 250 °C"
  },
  {
    "molecule": "O=C1NCCn2c(-c3cccc(C4OCCO4)c3)nc3cc(F)cc1c32",
    "endpoint_name": "melting point",
    "readout_value": "262 to 264 °C (dec.)"
  },
  {
    "molecule": "CC(C)N1CCCCC1c1ccc(-c2nc3cccc4c3n2CCNC4=O)cc1 (centres unmarked)",
    "endpoint_name": "melting point",
    "readout_value": "> 260 °C (dec.)"
  },
  {
    "molecule": "Cc1ccc(-c2nc(-c3nc4cccc5c4n3CCNC5=O)cs2)cc1",
    "endpoint_name": "melting point",
    "readout_value": "308 to 313 °C"
  },
  {
    "molecule": "CN(C)Cc1cccc(-c2nc3cccc4c3n2CCNC4=O)c1",
    "endpoint_name": "melting point",
    "readout_value": "192 to 194 °C (dec.)"
  }
]

Dear colleague, could you send me melting point for each of the items below? Thanks.
1. N#Cc1c(-c2ccc(F)cc2)n2c3c(cccc13)C(=O)NCC2
2. O=C1NCCn2c(-c3cccc(C4OCCO4)c3)nc3cccc1c32
3. O=C1NCCn2cc(/C(=N/O)c3ccccc3)c3cccc1c32
4. O=C1NCCn2c(-c3cccc(CO)c3)nc3cccc1c32 [Example 32a]
5. O=C1NCCn2c(-c3cccc(Cc4ccccc4)c3)nc3cccc1c32
6. CN(C)Cc1cccc(-c2nc3cc(F)cc4c3n2CCNC4=O)c1
7. COCCNCc1ccc(-c2nc3cccc4c3n2CCNC4=O)cc1

**Result**
1: 248 to 250 °C; 2: 223 to 225 °C; 3: 263 to 265 °C; 4: 275 to 278 °C; 5: 205 to 208 °C; 6: 215 to 217 °C (dec.); 7: 154 to 157 °C

Dear colleague, could you send me melting point for each of the items below? Thanks.
1. O=C1NCCn2c(-c3cccs3)nc3cccc1c32
2. O=C1NCCn2c(-c3ccccn3)nc3cccc1c32
3. C#CCNCc1ccc(-c2nc3cccc4c3n2CCNC4=O)cc1
4. O=C1NCCn2c(C34CC5CC(CC(C5)C3)C4)nc3cccc1c32
5. O=C1NCCn2c(-c3ccnc(Cl)c3)nc3cccc1c32
6. CNCc1cccc(-c2nc3cc(F)cc4c3n2CCNC4=O)c1

**Result**
247 to 250 °C
249 to 250 °C
126 °C (dec.)
304 to 306 °C
265 °C (dec.)
196 to 198 °C

Dear colleague, could you send me melting point for each of the items below? Thanks.
1. CNCc1cccc(-c2nc3cccc4c3n2CCNC4=O)c1
2. O=C1NCCn2c(-c3cccc(Oc4cc(Cl)cc(Cl)c4)c3)nc3cccc1c32

**Result**
1: 110 °C (dec.); 2: 258 to 259 °C (dec.)

Cited source for all entries: patent US6548494B1
